Could you please report measured SPR KP, DMPC for the items listed next?
Assay: SPR, peptide binding to LUVs immobilized on L1 chip
Conditions: lipid/aqueous partition coefficient from SPR steady state (Figueira et al. method), DMPC LUVs, HEPES pH 7.4; ± SD of triplicate fits
Non-standard residues stand in square brackets, D forms with d. Residues, ends and D or L forms follow the SMILES beside them.

# input Could you share which SPR KP, DMPC value was measured for NCCCC[C@@H]1NC(=O)[C@H](Cc2c[nH]c3ccccc23)NC(=O)[C@H](CCCCN)NC(=O)[C@H](Cc2c[nH]c3ccccc23)NC(=O)[C@H](CCCCN)NC(=O)[C@H](Cc2c[nH]c3ccccc23)NC1=O [compound 4] (cyclo(WKWKWK)) ?
# output 0.53 ± 0.01 × 10^3

# input Then what about the compound N=C(N)NCCC[C@@H]1NC(=O)[C@H](CCCNC(=N)N)NC(=O)[C@H](Cc2c[nH]c3ccccc23)NC(=O)[C@H](Cc2c[nH]c3ccccc23)NC(=O)[C@H](Cc2c[nH]c3ccccc23)NC(=O)[C@H](CCCNC(=N)N)NC1=O [compound 1] (cyclo(WWWRRR)) ?
# output 6.65 ± 0.80 × 10^3

# input Then what about the compound CC(C)C[C@@H]1NC(=O)[C@@H](CCCNC(=N)N)NC(=O)[C@H](CCCCN)NC(=O)[C@H](CC(N)=O)NC(=O)[C@@H](Cc2c[nH]c3ccccc23)NC(=O)[C@H](Cc2c[nH]c3ccccc23)NC1=O [compound 5] (cyclo(LW[dW]NK[dR])) ?
# output 0.28 ± 0.01 × 10^3

# input Then what about the compound NCCCC[C@@H]1NC(=O)[C@H](CCCCN)NC(=O)[C@H](Cc2c[nH]c3ccccc23)NC(=O)[C@H](Cc2c[nH]c3ccccc23)NC(=O)[C@H](Cc2c[nH]c3ccccc23)NC(=O)[C@H](CCCCN)NC1=O [compound 3] (cyclo(WWWKKK)) ?
# output 2.53 ± 0.08 × 10^3

# input Then what about the compound N=C(N)NCCC[C@@H]1NC(=O)[C@H](Cc2c[nH]c3ccccc23)NC(=O)[C@H](CCCNC(=N)N)NC(=O)[C@H](Cc2c[nH]c3ccccc23)NC(=O)[C@H](CCCNC(=N)N)NC(=O)[C@H](Cc2c[nH]c3ccccc23)NC1=O [compound 2] (cyclo(WRWRWR)) ?
# output 1.30 ± 0.09 × 10^3

---

Assay: Label-free MST, peptide binding to 100 nm vesicles
Details: label-free MST (Trp fluorescence), 2500 nM AMP, lipid 0–1.5 mM, 10 mM TRIS pH 7.4 100 mM NaCl, Hill fit; mean ± SD of triplicates; '>' = minimum value; read-out: Vesicle KD, DMPC/PG (MST)
Residues, ends and D or L forms follow the SMILES beside them.
readout-label: pKd
pKd field: float, defined as -log10 of concentration (mol/L).

# input Could you share which pKd value was measured for NCCCC[C@@H]1NC(=O)[C@H](Cc2c[nH]c3ccccc23)NC(=O)[C@H](CCCCN)NC(=O)[C@H](Cc2c[nH]c3ccccc23)NC(=O)[C@H](CCCCN)NC(=O)[C@H](Cc2c[nH]c3ccccc23)NC1=O [compound 4] (cyclo(WKWKWK)) ?
# output 3.95

# input Then what about the compound N=C(N)NCCC[C@@H]1NC(=O)[C@H](CCCNC(=N)N)NC(=O)[C@H](Cc2c[nH]c3ccccc23)NC(=O)[C@H](Cc2c[nH]c3ccccc23)NC(=O)[C@H](Cc2c[nH]c3ccccc23)NC(=O)[C@H](CCCNC(=N)N)NC1=O [compound 1] (cyclo(WWWRRR)) ?
# output 5.00

# input Then what about the compound N=C(N)NCCC[C@@H]1NC(=O)[C@H](Cc2c[nH]c3ccccc23)NC(=O)[C@H](CCCNC(=N)N)NC(=O)[C@H](Cc2c[nH]c3ccccc23)NC(=O)[C@H](CCCNC(=N)N)NC(=O)[C@H](Cc2c[nH]c3ccccc23)NC1=O [compound 2] (cyclo(WRWRWR)) ?
# output 4.62

# input Then what about the compound NCCCC[C@@H]1NC(=O)[C@H](CCCCN)NC(=O)[C@H](Cc2c[nH]c3ccccc23)NC(=O)[C@H](Cc2c[nH]c3ccccc23)NC(=O)[C@H](Cc2c[nH]c3ccccc23)NC(=O)[C@H](CCCCN)NC1=O [compound 3] (cyclo(WWWKKK)) ?
# output 4.77

---

Could you please report measured SMA-QA KP, DMPC (MST) for the items listed next?
Test: Label-free MST, peptide binding to SMA-QA nanodiscs
Settings: partition coefficient from initial fluorescence on MST instrument, SMA-QA nanodiscs, hyperbolic fit; ± SD of triplicate fits
Non-standard residues stand in square brackets, D forms with d. Residues, ends and D or L forms follow the SMILES beside them.

# input Could you share which SMA-QA KP, DMPC (MST) value was measured for N=C(N)NCCC[C@@H]1NC(=O)[C@H](CCCNC(=N)N)NC(=O)[C@H](Cc2c[nH]c3ccccc23)NC(=O)[C@H](Cc2c[nH]c3ccccc23)NC(=O)[C@H](Cc2c[nH]c3ccccc23)NC(=O)[C@H](CCCNC(=N)N)NC1=O [compound 1] (cyclo(WWWRRR)) ?
# output 7.07 ± 1.78 × 10^3

# input Then what about the compound CC(C)C[C@@H]1NC(=O)[C@@H](CCCNC(=N)N)NC(=O)[C@H](CCCCN)NC(=O)[C@H](CC(N)=O)NC(=O)[C@@H](Cc2c[nH]c3ccccc23)NC(=O)[C@H](Cc2c[nH]c3ccccc23)NC1=O [compound 5] (cyclo(LW[dW]NK[dR])) ?
# output 17.12 ± 12.90 × 10^3

# input Then what about the compound N=C(N)NCCC[C@@H]1NC(=O)[C@H](Cc2c[nH]c3ccccc23)NC(=O)[C@H](CCCNC(=N)N)NC(=O)[C@H](Cc2c[nH]c3ccccc23)NC(=O)[C@H](CCCNC(=N)N)NC(=O)[C@H](Cc2c[nH]c3ccccc23)NC1=O [compound 2] (cyclo(WRWRWR)) ?
# output 36.55 ± 11.82 × 10^3

# input Then what about the compound NCCCC[C@@H]1NC(=O)[C@H](CCCCN)NC(=O)[C@H](Cc2c[nH]c3ccccc23)NC(=O)[C@H](Cc2c[nH]c3ccccc23)NC(=O)[C@H](Cc2c[nH]c3ccccc23)NC(=O)[C@H](CCCCN)NC1=O [compound 3] (cyclo(WWWKKK)) ?
# output 9.16 ± 2.86 × 10^3

# input Then what about the compound NCCCC[C@@H]1NC(=O)[C@H](Cc2c[nH]c3ccccc23)NC(=O)[C@H](CCCCN)NC(=O)[C@H](Cc2c[nH]c3ccccc23)NC(=O)[C@H](CCCCN)NC(=O)[C@H](Cc2c[nH]c3ccccc23)NC1=O [compound 4] (cyclo(WKWKWK)) ?
# output 6.15 ± 6.54 × 10^3

---

Test: Label-free MST, peptide binding to 100 nm vesicles
Settings: partition coefficient from initial fluorescence on MST instrument, hyperbolic fit, 2500 nM AMP, TRIS pH 7.4; ± SD of triplicate fits; judged unreliable by authors
Non-standard residues stand in square brackets, D forms with d. Residues, ends and D or L forms follow the SMILES beside them.
Could you please report measured Vesicle KP, DMPC/PG (MST) for the items listed next?

# input Could you share which Vesicle KP, DMPC/PG (MST) value was measured for N=C(N)NCCC[C@@H]1NC(=O)[C@H](CCCNC(=N)N)NC(=O)[C@H](Cc2c[nH]c3ccccc23)NC(=O)[C@H](Cc2c[nH]c3ccccc23)NC(=O)[C@H](Cc2c[nH]c3ccccc23)NC(=O)[C@H](CCCNC(=N)N)NC1=O [compound 1] (cyclo(WWWRRR)) ?
# output 7.73 ± 1.58 × 10^3

# input Then what about the compound CC(C)C[C@@H]1NC(=O)[C@@H](CCCNC(=N)N)NC(=O)[C@H](CCCCN)NC(=O)[C@H](CC(N)=O)NC(=O)[C@@H](Cc2c[nH]c3ccccc23)NC(=O)[C@H](Cc2c[nH]c3ccccc23)NC1=O [compound 5] (cyclo(LW[dW]NK[dR])) ?
# output 1.47 ± 0.07 × 10^3

# input Then what about the compound N=C(N)NCCC[C@@H]1NC(=O)[C@H](Cc2c[nH]c3ccccc23)NC(=O)[C@H](CCCNC(=N)N)NC(=O)[C@H](Cc2c[nH]c3ccccc23)NC(=O)[C@H](CCCNC(=N)N)NC(=O)[C@H](Cc2c[nH]c3ccccc23)NC1=O [compound 2] (cyclo(WRWRWR)) ?
# output 16.97 ± 3.83 × 10^3

---

Could you please report measured SPR KP, DMPC/PG for the items listed next?
Assay: SPR, peptide binding to LUVs immobilized on L1 chip
Details: lipid/aqueous partition coefficient from SPR steady state, 95% DMPC 5% DMPG LUVs, HEPES pH 7.4; ± SD of triplicate fits
Non-standard residues stand in square brackets, D forms with d. Residues, ends and D or L forms follow the SMILES beside them.

# input Could you share which SPR KP, DMPC/PG value was measured for NCCCC[C@@H]1NC(=O)[C@H](CCCCN)NC(=O)[C@H](Cc2c[nH]c3ccccc23)NC(=O)[C@H](Cc2c[nH]c3ccccc23)NC(=O)[C@H](Cc2c[nH]c3ccccc23)NC(=O)[C@H](CCCCN)NC1=O [compound 3] (cyclo(WWWKKK)) ?
# output 5.16 ± 0.34 × 10^3

# input Then what about the compound N=C(N)NCCC[C@@H]1NC(=O)[C@H](Cc2c[nH]c3ccccc23)NC(=O)[C@H](CCCNC(=N)N)NC(=O)[C@H](Cc2c[nH]c3ccccc23)NC(=O)[C@H](CCCNC(=N)N)NC(=O)[C@H](Cc2c[nH]c3ccccc23)NC1=O [compound 2] (cyclo(WRWRWR)) ?
# output 3.16 ± 0.15 × 10^3

# input Then what about the compound CC(C)C[C@@H]1NC(=O)[C@@H](CCCNC(=N)N)NC(=O)[C@H](CCCCN)NC(=O)[C@H](CC(N)=O)NC(=O)[C@@H](Cc2c[nH]c3ccccc23)NC(=O)[C@H](Cc2c[nH]c3ccccc23)NC1=O [compound 5] (cyclo(LW[dW]NK[dR])) ?
# output 0.40 ± 0.02 × 10^3

# input Then what about the compound NCCCC[C@@H]1NC(=O)[C@H](Cc2c[nH]c3ccccc23)NC(=O)[C@H](CCCCN)NC(=O)[C@H](Cc2c[nH]c3ccccc23)NC(=O)[C@H](CCCCN)NC(=O)[C@H](Cc2c[nH]c3ccccc23)NC1=O [compound 4] (cyclo(WKWKWK)) ?
# output 0.63 ± 0.03 × 10^3

# input Then what about the compound N=C(N)NCCC[C@@H]1NC(=O)[C@H](CCCNC(=N)N)NC(=O)[C@H](Cc2c[nH]c3ccccc23)NC(=O)[C@H](Cc2c[nH]c3ccccc23)NC(=O)[C@H](Cc2c[nH]c3ccccc23)NC(=O)[C@H](CCCNC(=N)N)NC1=O [compound 1] (cyclo(WWWRRR)) ?
# output 12.71 ± 0.16 × 10^3
